# targetEntity: EGFR(L858R) (Homo sapiens, UniProt P00533, L858R)
# Construct: purchased Eurofins DiscoverX KINOMEscan (scanTK)
# Sequence (P00533 25-1210 L858R): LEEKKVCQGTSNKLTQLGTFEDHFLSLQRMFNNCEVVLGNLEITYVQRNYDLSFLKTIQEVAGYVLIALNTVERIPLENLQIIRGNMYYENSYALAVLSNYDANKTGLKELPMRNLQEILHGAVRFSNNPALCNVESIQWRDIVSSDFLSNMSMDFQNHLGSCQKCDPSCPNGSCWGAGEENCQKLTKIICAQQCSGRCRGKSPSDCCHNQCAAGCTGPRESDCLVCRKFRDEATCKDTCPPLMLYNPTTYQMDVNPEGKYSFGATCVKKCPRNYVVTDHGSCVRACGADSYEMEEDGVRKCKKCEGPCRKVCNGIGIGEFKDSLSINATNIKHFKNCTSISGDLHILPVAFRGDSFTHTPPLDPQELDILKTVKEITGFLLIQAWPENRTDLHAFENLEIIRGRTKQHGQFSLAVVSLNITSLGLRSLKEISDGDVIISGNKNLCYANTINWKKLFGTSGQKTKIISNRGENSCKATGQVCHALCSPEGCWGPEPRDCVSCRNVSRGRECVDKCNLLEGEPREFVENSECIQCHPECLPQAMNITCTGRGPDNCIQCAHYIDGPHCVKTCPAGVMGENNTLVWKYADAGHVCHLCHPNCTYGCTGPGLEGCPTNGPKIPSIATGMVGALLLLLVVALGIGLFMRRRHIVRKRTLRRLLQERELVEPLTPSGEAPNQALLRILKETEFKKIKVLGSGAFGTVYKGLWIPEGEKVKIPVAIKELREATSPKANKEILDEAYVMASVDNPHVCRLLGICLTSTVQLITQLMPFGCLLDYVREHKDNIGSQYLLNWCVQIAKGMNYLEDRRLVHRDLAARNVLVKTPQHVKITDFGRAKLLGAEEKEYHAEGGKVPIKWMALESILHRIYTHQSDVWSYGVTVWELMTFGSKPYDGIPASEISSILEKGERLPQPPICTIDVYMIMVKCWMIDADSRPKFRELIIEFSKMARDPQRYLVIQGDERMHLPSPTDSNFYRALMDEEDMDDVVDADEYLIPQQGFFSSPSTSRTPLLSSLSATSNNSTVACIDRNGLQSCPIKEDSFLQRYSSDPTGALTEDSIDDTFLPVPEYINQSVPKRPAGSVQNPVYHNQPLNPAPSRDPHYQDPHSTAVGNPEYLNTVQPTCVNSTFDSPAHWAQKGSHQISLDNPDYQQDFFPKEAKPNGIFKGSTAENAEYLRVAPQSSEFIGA
# experimentSummary: KINOMEscan ScanTK
# Format: binding
# recordedConditions: read-out: %Control @1000nM
endpointLabel: remaining binding at 1 µM (%)
Answer in %, number only, no unit symbol.

Please review the following examples before continuing.
molecule	uom	remaining binding at 1 µM
CCOC(=O)c1cnc(S(C)(=O)=O)nc1N1CCC[C@@H](n2nc(-c3ccc(Oc4ccccc4)cc3)c3c(N)ncnc32)C1 [Compound 8c]	%	66
Cc1cnc(S(C)(=O)=O)nc1N1CCCC(n2nc(-c3ccc(Oc4ccccc4)cc3)c3c(N)ncnc32)C1 (stereo not shown) [Compound 8a]	%	83
CNC(=O)c1cnc(S(C)(=O)=O)nc1N1CCCC(n2nc(-c3ccc(Oc4ccccc4)cc3)c3c(N)ncnc32)C1 (stereo not shown) [Compound 8d]	%	41

Consider the record given below.
Reported remaining binding at 1 µM, molecule COC(=O)c1cnc(S(C)(=O)=O)nc1N1CCCC(n2nc(-c3ccc(Oc4ccccc4)cc3)c3c(N)ncnc32)C1 (stereo not shown) [Compound 8b] : ____ 74
